# Test system: B2M
# testProtocol: sgRNA screening for B2M knockout in LSCs (nucleofection, FACS)
# Type: cell-based, human
# conditionContext: Cas9 protein SEQ ID NO: 106, LSCs at passage 3, FACS after around 3 days
quantityMeasured: B2M knockout efficiency in LSCs after nucleofection (%)
Give bare numbers, in %.

Can you give me B2M knockout efficiency in LSCs after nucleofection for all of these, one by one?
1. CR000446: gRNA targeting human B2M; targeting domain SEQ ID NO: 136; sgRNA SEQ ID NO: 173 (nucleic acid, listed as RNA, chemistry not given here) guide: AGGGUAGGAGAGACUCACGCGUUUUAGAGCUAGAAAUAGCAAGUUAAAAUAAGGCUAGUCCGUUAUCAACUUGAAAAAGUGGCACCGAGUCGGUGCUUUU
2. 2-CR004366: gRNA targeting human B2M; targeting domain SEQ ID NO: 109; sgRNA SEQ ID NO: 160; from Dharmacon (nucleic acid, listed as RNA, chemistry not given here, gRNA targeting human B2M; from Dharmacon) guide: CGUGAGUAAACCUGAAUCUUGUUUUAGAGCUAGAAAUAGCAAGUUAAAAUAAGGCUAGUCCGUUAUCAACUUGAAAAAGUGGCACCGAGUCGGUGCUUUU
3. 9-HEYJA000005: gRNA targeting human B2M; targeting domain SEQ ID NO: 116; sgRNA SEQ ID NO: 167 (nucleic acid, listed as RNA, chemistry not given here) guide: UCACGUCAUCCAGCAGAGAAGUUUUAGAGCUAGAAAUAGCAAGUUAAAAUAAGGCUAGUCCGUUAUCAACUUGAAAAAGUGGCACCGAGUCGGUGCUUUU

1. 27
2. 2
3. 12
